Listed here are binders together with their documented Optical Density (OD).
- experimental-system: chimeric CD1a pool B protein [human CD1a lipid binding domain, mouse CD1d Ig domain] (human; mouse, UniProt P06126 18-201; P11609 205-297, limits assumed)
- Sequence (P06126 other isoform, or with tags, fused parts or gaps mutant limits assumed): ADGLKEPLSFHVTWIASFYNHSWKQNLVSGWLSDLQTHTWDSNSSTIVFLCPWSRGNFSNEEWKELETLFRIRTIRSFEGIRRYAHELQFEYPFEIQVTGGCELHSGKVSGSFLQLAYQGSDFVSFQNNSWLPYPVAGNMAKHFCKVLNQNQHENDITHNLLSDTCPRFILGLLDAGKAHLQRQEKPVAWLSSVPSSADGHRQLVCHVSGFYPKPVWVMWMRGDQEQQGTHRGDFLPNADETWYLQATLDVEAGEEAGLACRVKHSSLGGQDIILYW
- assay-info: ELISA, 1 µg/ml antibody
Numbers only here, please. The scale is OD.

Task: Quick one: Optical Density (OD) of 116 (VR12117) (antibody, V domains shown, also called OX116) VH: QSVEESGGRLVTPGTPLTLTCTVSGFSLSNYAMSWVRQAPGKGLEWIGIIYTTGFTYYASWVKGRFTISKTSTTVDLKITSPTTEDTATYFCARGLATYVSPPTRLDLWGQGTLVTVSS VL: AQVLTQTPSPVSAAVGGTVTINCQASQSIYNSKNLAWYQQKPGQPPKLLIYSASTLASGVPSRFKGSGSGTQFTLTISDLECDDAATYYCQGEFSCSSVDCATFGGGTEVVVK ?
Result: 1.42

Task: Quick one: Optical Density (OD) of 77A (VR11851) (antibody, V domains shown, also called OX77a; antibody 77a) VH: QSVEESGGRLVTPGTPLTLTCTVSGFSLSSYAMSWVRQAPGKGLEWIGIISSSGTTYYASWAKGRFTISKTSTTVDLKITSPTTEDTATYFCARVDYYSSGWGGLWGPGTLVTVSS VL: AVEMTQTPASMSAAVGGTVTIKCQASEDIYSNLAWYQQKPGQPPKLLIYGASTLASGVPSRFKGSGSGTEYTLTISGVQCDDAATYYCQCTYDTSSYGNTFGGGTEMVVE ?
Result: 1.26

Task: Quick one: Optical Density (OD) of 110 (VR12112) (antibody, V domains shown, also called OX110; antibody 110) VH: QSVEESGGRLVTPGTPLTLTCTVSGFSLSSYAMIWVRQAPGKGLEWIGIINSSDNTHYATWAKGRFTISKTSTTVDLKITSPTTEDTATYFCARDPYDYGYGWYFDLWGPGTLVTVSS VL: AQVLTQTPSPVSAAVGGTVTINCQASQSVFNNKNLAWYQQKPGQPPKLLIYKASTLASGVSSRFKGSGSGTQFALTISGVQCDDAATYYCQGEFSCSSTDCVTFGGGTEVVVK ?
Result: 1.45
